Biological target: human Cot catalytic domain (30-397 amino acids) (Homo sapiens)
Construct: Purified recombinant human Cot catalytic domain (30-397 amino acids) was purchased from Cama Biosciences; purchased Cama Biosciences (so in the source)
Sequence (P41279 30-397): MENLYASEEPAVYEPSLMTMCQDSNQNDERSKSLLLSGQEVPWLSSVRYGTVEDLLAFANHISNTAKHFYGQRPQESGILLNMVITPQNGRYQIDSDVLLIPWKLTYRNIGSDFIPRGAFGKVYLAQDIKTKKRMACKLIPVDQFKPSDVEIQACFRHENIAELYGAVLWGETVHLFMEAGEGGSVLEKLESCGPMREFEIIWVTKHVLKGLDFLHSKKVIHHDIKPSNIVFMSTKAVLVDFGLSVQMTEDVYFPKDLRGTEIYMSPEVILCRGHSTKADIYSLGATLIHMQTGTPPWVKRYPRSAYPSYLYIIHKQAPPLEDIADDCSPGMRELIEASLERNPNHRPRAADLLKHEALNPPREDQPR
Test: High Throughput Cot Biochemical Assay (KinEASE TR-FRET)
Details: Cot KinEASE TR-FRET, 400 μM ATP; read-out: IC50 HTRF
pIC50: −log10 of the molar value.
Classify as follows. Reported pIC50 greater than or equal to 8: 1.0. Reported pIC50 below: 0.0.

q: Evaluate Cc1c([C@H](Nc2cc(C#N)c3ncc(C#N)c(NCC(C)(C)C)c3c2)c2cn(C3(C(F)(F)F)CC3)nn2)cccc1-n1cnnc1 : pIC50 at minimum 8?
a: 1.0

q: Next: CC(C)(C)CNc1c(C#N)cnc2c(Cl)cc(N[C@H](c3cn(C4(C(F)(F)F)CC4)nn3)c3cccc(C#N)c3Cl)cc12
a: 0.0

Cited source for all entries: patent US10316017B2
